# assay overview: Toxicokinetics in Beagle dogs
# Format: in vivo
# condition set: both sexes, Beagle, dog, plasma, po, 20 mg/kg/day, 20 mg/kg/day oral, 28 days

{"compound": "CCCCCCCNc1cc(/C=C/C(=O)NO)ccc1OCCN(CC)CC [HZ1006]", "Cmax, ng/mL": 55.2}

====

# assay overview: Toxicokinetics in Beagle dogs
# Format: in vivo
# condition set: both sexes, Beagle, dog, plasma, po, 80 mg/kg/day, 80 mg/kg/day oral, 28 days
# Description: HZ1006 was administered orally to dogs (four/sex/group) at doses of 80, 40, 20, 5 and 0 (control) mg/kg/day, and the dosage volume was 2 mL/kg. The dogs received test doses with the exact amounts on a weekly basis based on current body weights. […] The other dogs in the above groups were dissected on the planned days. For the other groups, half of the dogs were anatomized on d28 and the remaining half on d42. […]
observation type: Cmax (ng/mL)

{"test smiles": "CCCCCCCNc1cc(/C=C/C(=O)NO)ccc1OCCN(CC)CC", "observation type": "Cmax", "value reported": 180}

====

# assay overview: Toxicokinetics in Beagle dogs
# Type: in vivo
# condition set: both sexes, Beagle, dog, plasma, po, 40 mg/kg/day, 40 mg/kg/day oral, 14 days

{"test smiles": "CCCCCCCNc1cc(/C=C/C(=O)NO)ccc1OCCN(CC)CC", "unit name": "ng·h/mL", "AUC(0-inf)": 1020}

====

# assay overview: Toxicokinetics in SD rats
# Assay type: in vivo, Sprague-Dawley (SD) rats
# condition set: both sexes, Sprague-Dawley, rat, plasma, po, 120 mg/kg/day, SD rats, 120 mg/kg/day oral, 28 days
observation type: Cmax (ng/mL)

{"molecule": "CCCCCCCNc1cc(/C=C/C(=O)NO)ccc1OCCN(CC)CC [HZ1006]", "observation type": "Cmax", "unit name": "ng/mL", "value reported": 57.5}

====

# assay overview: Subchronic toxicity test in Beagle dogs: overall (NOAEL, urinalysis, ECG)
# Type: in vivo
# condition set: both sexes, beagle, dog, in vivo, daily oral administration, 28 days, read-out: NOAEL (No Observed Adverse Effect Level)

{"test smiles": "CCCCCCCNc1cc(/C=C/C(=O)NO)ccc1OCCN(CC)CC", "unit name": "mg/kg", "NOAEL at 28 days": 5}

====

# assay overview: Toxicokinetics in Beagle dogs
# Assay type: in vivo
# condition set: both sexes, Beagle, dog, plasma, po, 40 mg/kg/day, 40 mg/kg/day oral, 14 days

{"test smiles": "CCCCCCCNc1cc(/C=C/C(=O)NO)ccc1OCCN(CC)CC", "half-life / h": 7.34}

====

# assay overview: Toxicokinetics in SD rats
# Format: in vivo, Sprague-Dawley (SD) rats
# condition set: both sexes, Sprague-Dawley, rat, plasma, po, 120 mg/kg/day, SD rats, 120 mg/kg/day oral, 28 days

{"test smiles": "CCCCCCCNc1cc(/C=C/C(=O)NO)ccc1OCCN(CC)CC", "Tmax (h)": 1.92}

====

# assay overview: Toxicokinetics in Beagle dogs
# Type: in vivo
# condition set: both sexes, Beagle, dog, in vivo, 20 mg/kg/day oral, 28 days

{"compound": "CCCCCCCNc1cc(/C=C/C(=O)NO)ccc1OCCN(CC)CC [HZ1006]", "unit name": "h", "Tmax": 3.17}

====

# assay overview: Toxicokinetics in SD rats
# Type: in vivo, Sprague-Dawley (SD) rats
# condition set: both sexes, Sprague-Dawley, rat, plasma, po, 20 mg/kg/day, SD rats, 20 mg/kg/day oral, 28 days

{"test smiles": "CCCCCCCNc1cc(/C=C/C(=O)NO)ccc1OCCN(CC)CC", "Cmax [ng/mL]": 12.9}

====

# assay overview: Toxicokinetics in SD rats
# Format: in vivo, Sprague-Dawley (SD) rats
# condition set: both sexes, Sprague-Dawley, rat, plasma, po, 20 mg/kg/day, SD rats, 20 mg/kg/day oral, single

{"compound": "CCCCCCCNc1cc(/C=C/C(=O)NO)ccc1OCCN(CC)CC [HZ1006]", "half-life": "36 min"}

====

# assay overview: Toxicokinetics in Beagle dogs
# Type: in vivo
# condition set: both sexes, Beagle, dog, plasma, po, 40 mg/kg/day, 40 mg/kg/day oral, single

{"test smiles": "CCCCCCCNc1cc(/C=C/C(=O)NO)ccc1OCCN(CC)CC", "AUC(0-inf) / ng·h/mL": 2500}
